ASSAY NOTES: Solubility test in different solvent systems
Format: physicochemical
DETAILS: Purified water, 250 mL; solution pH 3.6
MEASURED QUANTITY: solubility

>  <SMILES REPRESENTATION>
CC(C)(O/N=C(\C(=O)N[C@@H]1C(=O)N2C(C(=O)[O-])=C(C[N+]3(CCCN(CCCNC(=O)c4ccc(O)c(O)c4Cl)C(=O)c4ccc(O)c(O)c4Cl)CCCC3)CS[C@H]12)c1csc(N)n1)C(=O)O

>  <MEASUREMENT>
< 1000 µg/mL

$$$$

====

ASSAY NOTES: Solubility test in different solvent systems
Assay type: physicochemical
DETAILS: purified water adjusted with 1 M NaOH solution, aqueous buffer; Purified water + 1 M NaOH solution for pH adjustment, 4.9 ml; solution pH 5.08

>  <COMPOUND>
CC(C)(O/N=C(\C(=O)N[C@@H]1C(=O)N2C(C(=O)[O-])=C(C[N+]3(CCCN(CCCNC(=O)c4ccc(O)c(O)c4Cl)C(=O)c4ccc(O)c(O)c4Cl)CCCC3)CS[C@H]12)c1csc(N)n1)C(=O)O [compound as shown in formula (I)]

>  <solubility>
≥ 100 mg/mL

$$$$

Reference for the values: patent EP4721744A1
